From: the supplement of paper PMC10065799

# system: SHP2-C SH2;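 note: peptide library displayed on the E. coli surface as eCPX fusions, selected cells deep-sequenced, score is each peptide's frequency after selection divided by its frequency in the input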
# test: SH2 binding enrichment of the phosphorylated peptide, bacterial display (enrichment ratio); higher = better substrate or ligand; peptides without Tyr show the background
readout type: SH2 binding enrichment
Answer using only a numeral; do not append any unit.

The reported value for QKKPCYEIRWK [PDGFRB_Y562_R561C] in terms of SH2 binding enrichment is 2.56

The reported value for IGSQRYQLGVR [RB1_Y446_K447Q] in terms of SH2 binding enrichment is 0.887

The reported value for DRLANYLEKVR [KRT40_Y103_S102N] in terms of SH2 binding enrichment is 0.731

***
The reported value for VNFDDYTVNLG [GFPT1_Y367] in terms of SH2 binding enrichment is 0.715
